molecular target: Autotaxin (ENPP2, NPP2) (Homo sapiens, UniProt Q13822 Q13822:36-863); test: inhibition

>  <BINDER>
UCUGAGGGAAACAGGUUUUGCUCCUCGGA (mixed, as 16(21) with dC23 dC26) [SEQ 16(38)]

>  <IC50, nM>
1.3

$$$$
>  <BINDER>
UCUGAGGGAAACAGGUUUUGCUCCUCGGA (mixed, as 16(21) with dC23) [SEQ 16(29)]

>  <IC50, nM>
3.3

$$$$
>  <BINDER>
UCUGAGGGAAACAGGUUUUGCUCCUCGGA (mixed, as 16(21) with dC24) [SEQ 16(28)]

>  <IC50, nM>
2.7

$$$$
>  <BINDER>
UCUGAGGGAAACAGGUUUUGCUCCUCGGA (mixed, as 16(4) with dG8) [SEQ 16(14)]

>  <IC50, nM>
6.3

$$$$
>  <BINDER>
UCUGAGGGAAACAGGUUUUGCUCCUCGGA (mixed, as 16(47) with dA10 and phosphorodithioate at A10) [SEQ 16(68)]

>  <IC50, nM>
1.7

$$$$
>  <BINDER>
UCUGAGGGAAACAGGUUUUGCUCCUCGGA (mixed, as 16(48) with PS at A10) [SEQ 16(49)]

>  <IC50, nM>
1.6

$$$$
>  <BINDER>
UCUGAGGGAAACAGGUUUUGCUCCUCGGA (mixed, as 16(32) with 5' 40 kDa PEG (GL2-400GS2)-ssH linker instead of 5' idT) [SEQ 16(34)]

>  <IC50, nM>
4.2

$$$$
>  <BINDER>
UGAGGGAAACAGGUUUUGCUCCUCG (ssRNA, 2'-F pyrimidines, 2'-OH purines) [SEQ 17]

>  <IC50, nM>
37

$$$$
>  <BINDER>
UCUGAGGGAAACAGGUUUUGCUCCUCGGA (mixed, as 16(4) with dT22) [SEQ 16(13)]

>  <IC50, nM>
52

$$$$
>  <BINDER>
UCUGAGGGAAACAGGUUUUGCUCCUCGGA (mixed, as 16(21) with dT25) [SEQ 16(27)]

>  <IC50, nM>
3.2

$$$$
>  <BINDER>
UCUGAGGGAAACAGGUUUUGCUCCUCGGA (mixed, as 16(21) with ssH linker instead of 5' idT) [SEQ 16(30)]

>  <IC50, nM>
4.4

$$$$
>  <BINDER>
UUCGAGGGAAACAGGUUUUGCUCCUCAAA (ssRNA, 2'-F pyrimidines, 2'-OH purines) [SEQ 52]

>  <IC50, nM>
59

$$$$
>  <BINDER>
GGGAAACAGGUUUUGCUCC (ssRNA, 2'-F pyrimidines, 2'-OH purines) [SEQ 22]

>  <IC50, nM>
950

$$$$
>  <BINDER>
CGAGGGAAACAGGUUUUGCUCCUCG (ssRNA, 2'-F pyrimidines, 2'-OH purines) [SEQ 19]

>  <IC50, nM>
36

$$$$
